Biological target: full-length SARS-CoV-2 spike, WA-1 / Wuhan-1 (S wt) (SARS-CoV-2, UniProt P0DTC2 14-1273)
Assay: cell-based or functional assay
The entries below are paired with their reported pseudotyped virus neutralization IC50.

Binder | Measurement Unit | pseudotyped virus neutralization IC50
A20-29.1 (antibody, V domains shown) VH: EVQLVESGGGLVQPGRSLRLSCAASGFTFDDYAMHWVRQTPGKGLEWVSGISWNSGDIDYADSVKGRFTISRDNAKNSLYLQMNSLRTEDTALYYCTKGWFGEFFGAGSICDYWGQGTLVTVSS VL: EIVMTQSPATLSVSPGERATLSCRASQSVSNNLAWYQQKPGQAPRLLIYGASTRATGIPARFSGSGSGTEFTLTISSLQSEDFAVYYCQQYNNWPLFGQGTKVEIK | µg/mL | 0.348
A23-113.1 (antibody, V domains shown) VH: QVHLEESGGAVVQPGRSLRLSCAASGFTFSSYGMHWVRQAPGKGLEWVAVISHDGSYKYYADSVKGRFTISRDNSKDTLYLQTNSLRAEDTAMYYCAKSYGYWMAYFDYWGQGTLVTVSS VL: DIQMTQSPSSLSASVGDRVTITCRASQDISNYLAWYQQKPGKVPKLLIYAASTLQSGVPSRFSGSGSGTDFTLTISSLQPEDVATYYCQKYNSPWHTFGGGTKVEIK | µg/mL | 0.393
A19-1.1 (antibody, V domains shown) VH: QVQLVESGGGVVQPGRSLRLSCAASGFTFTNYAMHWVRQAPGKGLEWVAVISNDGSDKYYADSVKGRFTISRDNSKSTVYLQMSSLRPEDTAVYFCARDPPQVHWSLDYWGQGTLVTVSS VL: QSALTQPPSASGSPGQSVTISCTGTSSDVGDYNYVSWYQHHPGKAPKLIIYDVSKRPSGVPDRFSGSKSGDTASLTVSGLQAEDEADYYCSSYAGNNNAVFGTGTKVTVL | µg/mL | 0.126
A19-82.1 (antibody, V domains shown) VH: QVQLVESGGGVVQPGRSLRLSCVVSGLIFSTYDMHWVRQAPGKGLEWVAVISYDGSYKHYADSVKGRFTISRDSSKNTLYLQMNSLRPEDTAVYYCAKGEGVVAGTGKFDYWGQGTLVTVSS VL: SYVLTQPPSVSVAPGQTARITCGGNNIGSKSVHWYQQKPGQAPVLVVYDDSDRPSGIPERFSGSNSGNTATLTISRVEAGDEADYYCQVWDGSGDPWVFGGGTKLTVL | µg/mL | 0.72
A23-80.1 (antibody, V domains shown) VH: QVQLVQSGAEVKKPGASVKVSCKASGYTFTSNGVTWVRQAPGQGLEWMGWISTYNGDTNYAQKLQGRVSMTTDTSTRTVYMELRSLRSDDTAVYYCARVGDAYCSGGSCYHFDYWGQGTLVTVSS VL: EIVMTQSPATLSVSPGERATLSCRASQSVSTNLAWYQQKPGQAPRLLIYGASTRATGIPARFSGSGSGTEFTLTISSLQSEDFALYYCQQYDNWPPEFTFGPGTKVDIK | µg/mL | 0.321
A20-9.1 (antibody, V domains shown) VH: QVQLVESGGGVVQPGRSLRLSCAASGFTFSSYGMHWVRQAPGKGLEWVAFISYDGSNKYYADSVKGRFTISRDNSKNTLYLQMNSLRAEDTAVYYCAKDYWSVAAGTSWFDPWGQGTLVSVSS VL: SYELTQPPSVSVSPGQTARITCSGDALPKQYAYWYQQKPGQAPVVVIYKDSERPSGIPERFSGSSSGTTVTLTISGVQAEDEADYYCQSADSSGTWVFGGGTKLTVL | µg/mL | 1.21
A20-36.1 (antibody, V domains shown) VH: QVQLVESGGGVVQPGRSLRLSCAASGFIFSSYGVHWVRQAPGKGLEWVAVIWHDESNKDYADSVKGRFTISRDNSKNTVYLQMNSLRAEDTAMYYCARDGYDFLTGAYELDYWGQGTLVTVSS VL: SYELTQPPSVSVSPGQTARITCSGDALPKQYAYWYQQKPGQAPVVVIYKDSERPSGIPERFSGSSSGTTVTLTISGVQAEDEADYYCQSADSSGTWVFGGGTKLTVL | µg/mL | 1.39
